# reported.conditions: buffer; pH 7.4; 200.0 µM
solubility kinetic by entry:

# example entries with known answers
| molecule | solubility kinetic |
| --- | --- |
| COc1cc2c(cc1OC)C(c1cccc(F)c1)CC(=O)N2 (configuration not stated) | > 45.2 µg/mL |
| Cc1cnc(C(=O)OCC(=O)Nc2cccc(S(=O)(=O)N3CCOCC3)c2)cn1 | > 63.1 µg/mL |
| S=c1[nH]nc(C2(c3ccccc3)CCCC2)o1 | > 36.9 µg/mL |
| Br.Cn1ccnc1SCC(=O)c1ccc(O)cc1 | > 49.4 µg/mL |
| O=C(O)C1CCN(C(=O)CSc2nnc(-c3ccccc3)o2)CC1 | > 52.1 µg/mL |

Find the measured solubility kinetic of O=C(NC(=S)N1CCN(C/C=C/c2ccccc2)CC1)c1cccnc1 and report it.
> 55 µg/mL

Find the measured solubility kinetic of CCc1nc(SCC(=O)O)c(C#N)c2c1CCCC2 and report it.
> 41.5 µg/mL
